# Tested on: human lung cancer A549 cells
# experimental-details: Cell proliferation assay (CCK-8)
# Assay type: cell-based
# test-parameters: A549, 72 h
# key: entry, value: IC50
quantity-name: IC50

* C[C@H]1CCC/C=C/[C@@H]2C[C@H](OC(=O)/C=C/c3ccc(F)cc3)C[C@H]2[C@H](O)/C=C/C(=O)O1 [Compound 3a, 7-O-(4-fluorocinnamic acid)acyl BFA] | 0.1 to 1 µM
* COc1cc(/C=C/C(=O)O[C@@H]2C[C@@H]3[C@H](/C=C/CCC[C@H](C)OC(=O)/C=C/[C@H]3OC(=O)/C=C/c3cc(OC)c(OC)c(OC)c3)C2)cc(OC)c1OC [Compound 11c] | 0.1 to 1 µM
* C[C@H]1CCC/C=C/[C@@H]2C[C@H](OC(=O)/C=C/c3ccncc3)C[C@H]2[C@H](OC(=O)/C=C/c2ccncc2)/C=C/C(=O)O1 [Compound 14c] | 0.1 to 1 µM
* C[C@H]1CCC/C=C/[C@@H]2C[C@H](OC(=O)/C=C/c3cnc4ccccc4c3)C[C@H]2[C@H](OC(=O)/C=C/c2cnc3ccccc3c2)/C=C/C(=O)O1 [Compound 17c] | 1 to 10 µM
* C[C@H]1CCC/C=C/[C@@H]2C[C@H](O)C[C@H]2[C@H](OC(=O)/C=C/c2ccc(C(F)(F)F)cc2)/C=C/C(=O)O1 [Compound 13b] | 0.1 to 1 µM
* C[C@H]1CCC/C=C/[C@@H]2C[C@H](O)C[C@H]2[C@H](OC(=O)/C=C/c2ccncc2)/C=C/C(=O)O1 [Compound 14b] | 0.1 to 1 µM
* C[C@H]1CCC/C=C/[C@@H]2C[C@H](OC(=O)/C=C/c3ccc(N(C)C)cc3)C[C@H]2[C@H](OC(=O)/C=C/c2ccc(N(C)C)cc2)/C=C/C(=O)O1 [Compound 10c] | 0.1 to 1 µM
* C[C@H]1CCC/C=C/[C@@H]2C[C@H](O)C[C@H]2[C@H](OC(=O)/C=C/c2cccc(Cl)c2)/C=C/C(=O)O1 [Compound 5b, 4-O-(3-chlorocinnamic acid)acyl BFA] | 0.1 to 1 µM
* Cc1ccccc1/C=C/C(=O)O[C@@H]1C[C@H]2[C@H](O)/C=C/C(=O)O[C@@H](C)CCC/C=C/[C@@H]2C1 [Compound 8a, 7-O-(2-methylcinnamic acid)acyl BFA] | 0.1 to 1 µM
* Cc1ccc(/C=C/C(=O)O[C@@H]2C[C@@H]3[C@H](/C=C/CCC[C@H](C)OC(=O)/C=C/[C@H]3OC(=O)/C=C/c3ccc(C)cc3)C2)cc1 [Compound 7c, 4,7-O-bis(4-methylcinnamic acid)acyl BFA] | 1 to 10 µM
* C[C@H]1CCC/C=C/[C@@H]2C[C@H](O)C[C@H]2[C@H](OC(=O)/C=C/c2ccccc2F)/C=C/C(=O)O1 [Compound 2b, 4-O-(2-fluorocinnamic acid)acyl BFA] | 0.1 to 1 µM
